# experimentalSystem: Nuclear receptor ROR-gamma (Homo sapiens) (UniProt P51449)
# procedureText: qHTS assay to identify small molecule antagonists of the retinoid-related orphan receptor gamma (ROR-gamma) signaling pathway (AID 1159521; further: nearly all actives have a fitted effect of over 50% in size)
# particulars: Tet-on RORgamma CHO cells, RORE-luciferase, 16 h; series mostly up to 92.4 µM
Records with an inconclusive call do not appear. The source made the active and inactive calls. The call rests on the fitted dose curve; in most records, active means well fitted inhibition curve with a large enough effect in the repeat runs; inconclusive means weak or mixed curves, or effect the other way; inactive means no such curve, though single readings can be large or run the other way.
Classes used: 1.0 for active, 0.0 for inactive

>>> cat("CCC(C)(C)CC")
0.0
>>> cat("COc1cc(C(=O)OCCCN2CCCN(CCCOC(=O)c3cc(OC)c(OC)c(OC)c3)CC2)cc(OC)c1OC")
0.0
>>> cat("CCCCC/C=C\\C/C=C\\CCCCCCCC(=O)NC(C)c1ccccc1 (stereo not drawn)")
0.0
>>> cat("c1ccc(CNCCNCc2ccccc2)cc1")
0.0
>>> cat("CC(C)Nc1ccc(NC(C)C)c2c1C(=O)c1ccccc1C2=O")
1.0
>>> cat("CCCCC(CC)CN1C(=O)C2C3C=CC(C3)C2C1=O (stereo not drawn)")
0.0
>>> cat("CCCCCCCCCCCCCCCCOS(=O)(=O)O")
0.0
>>> cat("Cc1nn(C)c(Oc2ccccc2)c1/C=N/OCc1ccc(C(=O)OC(C)(C)C)cc1")
1.0
>>> cat("CC(=O)OC[C@H]1O[C@@H](n2ncc(=O)[nH]c2=O)[C@H](OC(C)=O)[C@@H]1OC(C)=O")
1.0
>>> cat("O=C1OC(=O)C2C3C=CC(C3)C12 (stereo not drawn)")
0.0
>>> cat("CCCCC")
0.0
>>> cat("COc1cc2c(cc1OC)C(C(C(=O)N(CCc1ccc(OC)c(OC)c1OC)CCc1ccc(OC)c(OC)c1OC)c1ccccc1)=NCC2 (stereo not drawn)")
0.0
>>> cat("CCOC(=O)NCCOc1ccc(Oc2ccccc2)cc1")
1.0
>>> cat("CCN(CC)CCOC(=O)C(c1ccccc1)C1CCCCC1 (stereo not drawn)")
0.0
>>> cat("COC(=O)C1=C(C)NC(COC(N)=O)=C(C(=O)OC(C)C)C1c1cccc(Cl)c1Cl (stereo not drawn)")
0.0
>>> cat("C#CCN(C)CCCOc1ccc(Cl)cc1Cl")
0.0
>>> cat("C=C1C(=C/C=C2\\CCC[C@]3(C)[C@@H]([C@H](C)/C=C/[C@@H](O)C4CC4)CC[C@@H]23)C[C@@H](O)C[C@@H]1O")
1.0
>>> cat("O=C1CCCCCCCCCCCC(=O)OCCO1")
0.0
